System: UO-31 renal
Assay: NCI tumour cell line growth inhibition, 48 h
Please provide measured TGI for the entries that follow.
# unit: µM | format: bare number

Q. Any idea what TGI was measured for `COc1cc(/C=N/NC(=O)c2ccccc2Nc2cccc(C(F)(F)F)c2)cc(OC)c1OC` ?
A. 21.5

Q. Any idea what TGI was measured for CC(C)[Si](OCC1CC(C#N)OC(C)(C)O1)(C(C)C)C(C)C (stereo not given) ?
A. 40.9

----------
System: COLO 205 colon
Assay: NCI tumour cell line growth inhibition, 48 h
Property: TGI

Q. Any idea what TGI was measured for CCOC(=O)C(C(=O)COC(C)(C)C)[C@@H]1C=C[C@H](OC(C)=O)C1 (stereo not given in full) ?
A. > 100 µM

Q. Any idea what TGI was measured for `Cc1c(O)c(=O)ccn1CCc1ccc(O)cc1` ?
A. > 100 µM

Q. Any idea what TGI was measured for COC(=O)/C(=N\Nc1nnc(C)n1N)C(C#N)c1ccccc1 (stereo not given) ?
A. > 100 µM

Q. Any idea what TGI was measured for CC(=O)OCC1OC(n2c(-c3ccccc3)c(N=Nc3ccc(C)cc3)c(C)c(C#N)c2=S)C(OC(C)=O)C(OC(C)=O)C1OC(C)=O (stereo not given) ?
A. > 100 µM

Q. Any idea what TGI was measured for COCCN1C(=O)C2c3[nH]c4ccccc4c3C3CCC(C(C)(C)C)CC3C2C1=O (stereo not given) ?
A. 33.7 µM

----------
System: CAKI-1 renal
Assay: NCI tumour cell line growth inhibition, 48 h
TGI below 20 µM gives 0.0; TGI at or above it gives 1.0.

Q. Is TGI at least 20 µM? Consider `COc1cccc(NC2=C(Cl)C(=O)N(Cc3ccc(Cl)cc3)C2=O)c1`
A. 0.0

Q. Is TGI at least 20 µM? Consider `CC1=C(N2CC2)C(=O)c2ccccc2C1=O`
A. 0.0

Q. Is TGI at least 20 µM? Consider `Cc1ccc(S(=O)(=O)Nn2c(O)c(C#N)c(-c3ccc([N+](=O)[O-])cc3)c(C#N)c2=O)cc1`
A. 1.0

Q. Is TGI at least 20 µM? Consider COCCN1C(=O)C2c3[nH]c4ccccc4c3C3CCC(C(C)(C)C)CC3C2C1=O (stereo unspecified)
A. 1.0

Q. Is TGI at least 20 µM? Consider `O=C(CCCCCCCCC(=O)N/N=C\c1cc(Cl)ccc1O)N/N=C\c1cc(Cl)ccc1O`
A. 1.0

Q. Is TGI at least 20 µM? Consider `COc1ccc(C(=O)c2cc3c(N)c(C(=O)Nc4cccc(OC)c4)sc3nc2C)cc1`
A. 1.0

Q. Is TGI at least 20 µM? Consider `N#C/C(=C\c1ccc2[nH]ccc2c1)C(=O)c1ccc(O)c(O)c1`
A. 1.0

Q. Is TGI at least 20 µM? Consider COC(=O)C(C(=O)C(N)=O)c1csc(-n2nc(-c3ccccc3)cc2-c2ccccc2)n1 (stereo unspecified)
A. 0.0

Q. Is TGI at least 20 µM? Consider COc1ccc(-n2cnc3c(NC(Cc4ccccc4)C(=O)O)ncnc32)cc1 (stereo unspecified)
A. 1.0

Q. Is TGI at least 20 µM? Consider `Cn1nc(-c2ccccc2)c(C(=O)/C=C/c2ccc(Cl)cc2)c(N2CCCC2)c1=O`
A. 1.0

Q. Is TGI at least 20 µM? Consider CC1C2(C)OCC(C#N)(C(=N)O2)C1(C#N)C#N (stereo unspecified)
A. 1.0

Q. Is TGI at least 20 µM? Consider CCCCCCCCCCCCCCCCOCC(O)CO (stereo unspecified)
A. 1.0

Q. Is TGI at least 20 µM? Consider COc1ccc(C2=NC(c3ccc(Cl)cc3)C(c3ccc(Cl)cc3)N2C(=O)N2CCNC(=O)C2)c(OC(C)C)c1 (stereo unspecified)
A. 0.0

Q. Is TGI at least 20 µM? Consider `CC(=O)c1sc2[n+](c1C)C(=O)/C(=C\c1ccccc1Cl)S2`
A. 1.0

Q. Is TGI at least 20 µM? Consider CC(C)c1ccc(/C=C2\CSCC3=C2N=C2SCC(=O)N2C3c2ccc(C(C)C)cc2)cc1 (stereo unspecified)
A. 1.0

Q. Is TGI at least 20 µM? Consider `CCN(CC)CCO[Si](OCCN(CC)CC)(OCCN(CC)CC)OCCN(CC)CC`
A. 1.0

Q. Is TGI at least 20 µM? Consider `FC(F)(F)c1ccc2nc(Sc3ccc4ccccc4c3)cnc2c1`
A. 1.0

Q. Is TGI at least 20 µM? Consider `O=c1[nH]c2ccc([N+](=O)[O-])cc2nc1/C=C(\O)c1ccccc1`
A. 1.0

Q. Is TGI at least 20 µM? Consider Clc1cc2nnn(C3CCCO3)c2cc1Cl (stereo unspecified)
A. 1.0

Q. Is TGI at least 20 µM? Consider `Cc1cc2nc(-c3c(F)cccc3Cl)n(Cc3c(F)cccc3Cl)c2cc1C`
A. 0.0

Q. Is TGI at least 20 µM? Consider CCOC(=O)CC(NC(=O)c1ccc(N=NN(C)C)cc1)C(=O)OCC (stereo unspecified)
A. 1.0
